# system-name: AAK1 (amino acids T27-A365) (Homo sapiens (Human), UniProt Q2M2I8)
# Sequence (Q2M2I8 27-365): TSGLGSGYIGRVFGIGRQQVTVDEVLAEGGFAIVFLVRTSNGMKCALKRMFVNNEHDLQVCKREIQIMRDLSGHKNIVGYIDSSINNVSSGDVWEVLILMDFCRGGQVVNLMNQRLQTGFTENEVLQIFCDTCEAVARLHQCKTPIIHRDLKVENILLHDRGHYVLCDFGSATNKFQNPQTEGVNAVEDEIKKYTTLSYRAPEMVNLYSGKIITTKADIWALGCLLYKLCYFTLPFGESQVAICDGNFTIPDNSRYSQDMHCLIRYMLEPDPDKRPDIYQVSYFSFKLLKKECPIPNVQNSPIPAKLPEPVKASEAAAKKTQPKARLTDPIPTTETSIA
# assay-protocol: AAK1 pSENs assay
# Type: biochemical
# recorded-conditions: ratio of AAK1 pSENs activity to GAK pSENs activity
observed-property: AAK1:GAK pSENs Selectivity

Worked examples follow.
compound	measurement
COc1cn2ncc(-c3cccnc3OC3CC3)c2nc1N1CCN(C(=O)O[C@H]2CC(=O)N(C)C2)CC1	E (E: >1.00)
C[C@H]1CN(c2ccn3ncc(-c4cccnc4OC4CC4)c3n2)CCN1C(=O)O[C@@H]1CNC(=O)C1	B (B: 0.016-0.075)
CC(C)(C)OC(=O)N1CCC(N2C[C@@H](OC(=O)N3CCN(c4ccn5ncc(-c6cccnc6OC6CC6)c5n4)CC3)CC2=O)CC1	A (A: ≤0.015)
COC(=O)N1CC(Oc2ncccc2-c2cnn3ccc(N4CCN(C(=O)O[C@@H]5CC(=O)N(CCOCc6ccccc6)C5)CC4)nc23)C1	B (B: 0.016-0.075)
COC(=O)N1CC(Oc2ncccc2-c2cnn3ccc(N4CCN(C(=O)O[C@@H]5CC(=O)N(CCO)C5)CC4)nc23)C1	B (B: 0.016-0.075)

Item CC(C)(C)OC(=O)N1CCN(c2ccn3ncc(-c4cccnc4O)c3n2)CC1 has what recorded AAK1:GAK pSENs Selectivity? A (A: ≤0.015)

Can you handle C[C@@]1(OC(=O)N[C@@H]2CCN(c3ccn4ncc(-c5cccnc5OC5CC5)c4n3)C2)CCNC1 next? C (C: 0.076-0.15)

// next record Oc1ncccc1-c1cnn2ccc(N3CCNCC3)nc12 C (C: 0.076-0.15)

And COc1cnc(OC2CC2)c(-c2cnn3ccc(N4CCN(C(=O)O[C@H]5CC(=O)N(C)C5)CC4)nc23)c1 ? A (A: ≤0.015)

Similarly, COc1ncccc1-c1cnn2ccc(NCCN(C)C(=O)O[C@H]3CO[C@H]4OCC[C@H]43)nc12 ? B (B: 0.016-0.075)

What about this compound? CN1C[C@@H](OC(=O)N2CCN(c3nc4c(-c5cccnc5OC5CCOCC5)cnn4cc3F)CC2)CC1=O A (A: ≤0.015)

How about this compound: CC(C)Oc1ncccc1-c1cnn2ccc(N3CCN(C(=O)OC4(C)CCNC4)CC3)nc12 (stereo not drawn) B (B: 0.016-0.075)

Note, next up: C[C@@]1(OC(=O)N2CCN(c3ccn4ncc(-c5cccnc5OC5CC5)c4n3)CC2)CCN(CCO)C1 A (A: ≤0.015)

How about this compound: CN1C[C@@H](OC(=O)N2CCN(c3ccn4ncc(-c5cccnc5O)c4n3)CC2)CC1=O C (C: 0.076-0.15)

Here is the next compound: CC1(OC(=O)N2CCN(c3ccn4ncc(-c5cccc(C(N)=O)c5)c4n3)CC2)COC1 C (C: 0.076-0.15)

Next up: O=C1C[C@H](OC(=O)N2CCN(c3ccn4ncc(-c5cccnc5NC5CC5)c4n3)CC2)CN1 E (E: >1.00)

Would you kindly repeat that for CNCCN1C[C@@H](OC(=O)N2CCN(c3ccn4ncc(-c5cccnc5OC5CC5)c4n3)CC2)CC1=O ? A (A: ≤0.015)

---

# system-name: AAK1 (amino acids T27-A365) (Homo sapiens (Human))
# assay-protocol: AAK1 pSENs assay
# Format: biochemical
# recorded-conditions: ratio of AAK1 pSENs activity to GAK pSENs activity
observed-property: AAK1:GAK pSENs Selectivity

structure-as-smiles	system-name	observed-property	measurement
Cc1nn2ccc(N3CCN(C(=O)O[C@H]4CC(=O)N(C)C4)CC3)nc2c1-c1cccnc1OC1CC1	AAK1 (amino acids T27-A365) (Homo sapiens (Human))	AAK1:GAK pSENs Selectivity	E (E: >1.00)
Brc1cnn2ccc(N3CCNCC3)nc12	AAK1 (amino acids T27-A365) (Homo sapiens (Human))	AAK1:GAK pSENs Selectivity	E (E: >1.00)
